Test Method Notes: NCI Yeast Anticancer Drug Screen. Data for the cln2 rad14 strain (AID 165);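 further: 0% = growth equal to vehicle treated cultures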
Cond: S. cerevisiae cln2 rad14 strain; at 50.0 µM unless noted
Compounds without any hit were thinned out: in the full panel of roughly 79,000, 15% have a hit. Activity calls are given as the source filed them. No stated cut-off is given here; in the data, active means growth inhibition above about 70%; inactive means the rest.
API: response.call in TRUE = active, FALSE = inactive

Query: Any idea what this test logged for CC(C)CCOC(=O)C(O)c1ccccc1 (centres undefined) ?
Reply: FALSE

---

Reported values of growth inhibition for individual entries
Test Method Notes: NCI Yeast Anticancer Drug Screen. Data for the rad50 strain (AID 155);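 further: 0% = growth of vehicle-only cultures of the same strain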
Cond: S. cerevisiae rad50 strain growth inhibition, active compounds read high; at 50.0 µM unless noted
Compounds without any hit were thinned out: in the full panel of roughly 79,000, 15% have a hit.
Kindly answer with a numeric value in %, unit omitted.

- Compound: "Cc1ncc(CN=Cc2ccc(Cl)cc2)c(N)n1"
  growth inhibition / %: 9.8

Query: GET /values?readout=growth inhibition&item= C=C1N(c2cc3ccccc3o2)C(=O)OC12CCCCC2
Reply: -37.5

Query: Thanks! And CC(=O)OCC1OC(n2c(Br)nc3c(=O)[nH]c(N)nc32)C(OC(C)=O)C1OC(C)=O (configuration not stated) ?
Reply: -1.5

Query: Thanks! And CCOC(=O)c1cnc2c(cnn2CC)c1NCC(C)C ?
Reply: -3.15

Query: Thanks! And Cc1cc2ccccc2n1/C=C/C1=[N+](C)c2ccccc2C1(C)C ?
Reply: 10.3

Query: Thanks! And S=c1c(-c2ccccc2)cnc2sccn12 ?
Reply: 40.9

Query: Thanks! And CNc1cc([N+](=O)[O-])ccc1Br ?
Reply: 10.2

Query: Thanks! And O=CC(NC(=O)N(CCCl)N=O)C(O)C(O)C(O)CO (configuration not stated) ?
Reply: -8

Query: Thanks! And O=S1(=O)C(=C(c2ccccc2)c2ccccc2)S(=O)(=O)c2ccccc21 ?
Reply: 39.7

Query: Thanks! And CCOC(=O)CSCC(C)C(=O)OC (configuration not stated) ?
Reply: -0.3

Query: Thanks! And CNC(=O)N(CCCCC(NC(C)=O)C(=O)NCc1ccccc1)Cc1ccccc1 (configuration not stated) ?
Reply: -12.3

Query: Thanks! And CNC(=O)N(C)Cc1ccccc1 ?
Reply: 12.7

---

Test Method Notes: NCI Yeast Anticancer Drug Screen. Data for the rad50 strain (AID 155);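 further: 0% = growth of vehicle-only cultures of the same strain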
Cond: S. cerevisiae rad50 strain growth inhibition, active compounds read high; at 50.0 µM unless noted
About 79,000 compounds went through this panel and 15% of them were active in at least one assay; those are over-represented in the sample as a whole.
Observed Property: growth inhibition (%)
Kindly answer with a numeric value in %, unit omitted.

- Molecule: "CC1(C)OC2OC3C(Br)C(=O)OC3C2O1 (stereo not given)"
  Experimental Result: 14.8

Query: GET /values?readout=growth inhibition&item= CC1=C(CCC(=O)O)c2cc3nc(cc4[nH]c(cc5[nH]c(cc1n2)c(C)c5C1CC1C(=O)O)c(C)c4C1CC1C(=O)O)C(C)=C3CCC(=O)O (stereo not given)
Reply: 0.35

Query: Thanks! And CCN(CCO)c1cccc(C)c1 ?
Reply: -12.2

Query: Thanks! And O=C(CC(CC(=O)C(c1ccccc1)c1ccccc1)c1ccccc1)C(c1ccccc1)c1ccccc1 ?
Reply: 45.9

Query: Thanks! And CC(C)C(=O)OC1(CC2CCCCN2C)CCCCC1 (stereo not given) ?
Reply: -3.2

---

Test Method Notes: NCI Yeast Anticancer Drug Screen. Data for the cln2 rad14 strain (AID 165);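 further: 0% = growth equal to vehicle treated cultures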
Cond: S. cerevisiae cln2 rad14 strain, active compounds read high; at 50.0 µM unless noted
This is part of a sample that, as a whole, favours compounds with a hit. Of some 79,000 tested, about 15% had one in any assay.
Observed Property: growth inhibition (%)
Kindly answer with a numeric value in %, unit omitted.

- Compound: "COC1CCC2C3CCC(C3)C12 (configuration not stated)"
  Units Label: "%"
  Experimental Result: 5.05
- Compound: "COc1cc(OC)c(C2SCC(=O)N2c2nnc(C(F)(F)F)s2)cc1OC (configuration not stated)"
  Units Label: "%"
  Experimental Result: 3.75
- Compound: "O=Cc1cccc2ccc3cccc(C(=O)Cl)c3c12"
  Units Label: "%"
  Experimental Result: 18
- Compound: "CCOC(=O)C(NC(=O)CC)(Nc1ccc(S(=O)(=O)Nc2nc(C)cc(C)n2)cc1)C(F)(F)F (configuration not stated)"
  Units Label: "%"
  Experimental Result: 21.6
- Compound: "CCCCOC(=O)COc1c(Cl)ccc(Cl)c1Cl"
  Units Label: "%"
  Experimental Result: -3.5
- Compound: "OCCC1CCCCN1 (configuration not stated)"
  Units Label: "%"
  Experimental Result: -18.4
- Compound: "Cc1cc(Cl)ccc1NC(=O)C1C(=O)N(c2ccc(Cl)cc2C)C(=O)/C1=N\\N (configuration not stated)"
  Units Label: "%"
  Experimental Result: -18.9
- Compound: "Cc1cc(C)c(CC(C)C)c(C)c1"
  Units Label: "%"
  Experimental Result: 31.4
- Compound: "CN(C)C(=O)OC(Cn1cncn1)(Cn1cncn1)c1ccc(Cl)cc1Cl"
  Units Label: "%"
  Experimental Result: -10.8
- Compound: "NNC(=S)N/N=C/c1ccc([N+](=O)[O-])s1"
  Units Label: "%"
  Experimental Result: -47.4

Query: GET /values?readout=growth inhibition&item= Nc1nc(Cl)c(N)c(NCC2(CO)CC(Cc3ccccc3)C2)n1 (configuration not stated)
Reply: 7.6

Query: Thanks! And ONC(CC(O)(NO)NO)c1ccccc1 (configuration not stated) ?
Reply: 12.6

---

Test Method Notes: NCI Yeast Anticancer Drug Screen. Data for the mec2-1 strain (AID 157)
Cond: S. cerevisiae mec2-1 strain, active compounds read high; at 50.0 µM unless noted
About 79,000 compounds went through this panel and 15% of them were active in at least one assay; those are over-represented in the sample as a whole.
Observed Property: growth inhibition (%)
Kindly answer with a numeric value in %, unit omitted.

Known growth inhibition results, listed for orientation:
- Compound: "COc1cccc(/C=C/c2ccnnc2)c1"
  Experimental Result: -2.8
- Compound: "CSC(=S)OC(C)CC(C)C (stereo not drawn)"
  Experimental Result: -3.95
- Compound: "Cc1cc2nc3c(C(OC4OC(CO)C(O)C(O)C4O)C(O)CO)nn(-c4ccc(F)cc4)c3nc2cc1C (stereo not drawn)"
  Experimental Result: -6.85
- Compound: "C#CCOCC(CCl)OC(=O)Nc1ccccc1 (stereo not drawn)"
  Experimental Result: 47.1

Query: GET /values?readout=growth inhibition&item= COc1cccc2c(SC)c(C)[nH]c12
Reply: -0.4

Query: Thanks! And CC(=O)ONC(C(=O)C(C)(C)C)C(=O)C(C)(C)C ?
Reply: -4.4

Query: Thanks! And CC(=O)N(C(C)=O)N1C(=O)CSC1=S ?
Reply: -35

Query: Thanks! And COc1ccccc1NC(=O)c1ccccc1 ?
Reply: 11.3

Query: Thanks! And CC(C)=NOc1ccccc1[N+](=O)[O-] ?
Reply: 6.15

Query: Thanks! And Cc1nc(Nc2nc3ccccc3[nH]2)[nH]c(=O)c1CCO ?
Reply: 5.4

Query: Thanks! And C=C1N(C=O)C(C)(C)N(O)C1(C)C ?
Reply: 15.7

Query: Thanks! And N/C1=C/C(=O)NC(=O)c2c(c3ccccc3oc2=O)C1 ?
Reply: 0.9

Query: Thanks! And Brc1cccc(C=NC23CC4CC(CC(C4)C2)C3)c1 ?
Reply: -13.8

---

Test Method Notes: NCI Yeast Anticancer Drug Screen. Data for the rad50 strain (AID 155);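 further: 0% = growth of vehicle-only cultures of the same strain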
Cond: S. cerevisiae rad50 strain growth inhibition, active compounds read high; at 50.0 µM unless noted
Compounds without any hit were thinned out: in the full panel of roughly 79,000, 15% have a hit.
Observed Property: growth inhibition (%)
Kindly answer with a numeric value in %, unit omitted.

Known growth inhibition results, listed for orientation:
- Compound: "COC(=O)C(NC(=O)c1ccccc1)C(c1ccc(Cl)cc1)P(=O)(OC)OC (stereo unspecified)"
  Experimental Result: -19.6
- Compound: "C/C(=C\\C(=O)c1ccc(Sc2ccccc2)cc1)c1ccc(Sc2ccccc2)cc1"
  Experimental Result: 25.1

Query: GET /values?readout=growth inhibition&item= CN1OC(=O)OC(C)(c2ccccc2)C1=O (stereo unspecified)
Reply: 2.9

Query: Thanks! And COc1ccc(CNC(=O)CC(C)=O)cc1 ?
Reply: -6.7

Query: Thanks! And Clc1ccc(Oc2ncnc3nc[nH]c23)cc1 ?
Reply: 3.6

Query: Thanks! And Cc1cn(C2CC(OP(=O)(O)OCC3OC(n4ccc(N)nc4=O)C(O)C3O)C(CO)O2)c(=O)[nH]c1=O (stereo unspecified) ?
Reply: 7.55

Query: Thanks! And CCCC(=O)Nc1ccc(C2=NNC(=O)C3CC23)cc1 (stereo unspecified) ?
Reply: 31.2

Source: PubChem BioAssay (NCI)
